Reference for the values: patent US12240857B2

This listing pairs molecules with measured EC50.
System: BDBV mucin-domain-deleted glycoprotein pseudotyped VSV
MEASUREMENT_DESCRIPTION: microbe, parasite or virus in culture
Type: cell-based, Bundibugyo ebolavirus
RUN_PARAMETERS: Vesicular stomatitis virus, Vero, read-out: EC50 BDBV
Express it in nM; write the number only.

Here's what some known entries look like.
> print(dat)
                                   molecule  quantity.unit  numeric.result
1  NC1CCN(C(=O)C23CC4CC(C2)CC(c2ccccc2)(C4)C3)CC1             nM              80
2  O=C(CC12CC3CC(CC(C3)C1)C2)NCC(=O)N[C@@H]1CCN(Cc2ccccc2)C1             nM           10000

BDBV mucin-domain-deleted glycoprotein pseudotyped VSV data for CC12CC3CC(C(=O)N[C@H]4[C@@H]5CNC[C@@H]54)(C1)CC(c1ccccc1)(C3)C2 (some centres unmarked) ; its EC50: 210

EC50 value, target or system BDBV mucin-domain-deleted glycoprotein pseudotyped VSV, for O=C(CC12CC3CC(C1)CC(c1ccccc1)(C3)C2)NCC(=O)N1CC2CC1CN2Cc1ccccc1 (centres unmarked) : 230

C[C@H]1C[C@H](NC(=O)C23CC4CC(C)(C2)CC(c2ccccc2)(C4)C3)CCN1 (some centres unmarked) tested on BDBV mucin-domain-deleted glycoprotein pseudotyped VSV gave EC50: 300

Tested on BDBV mucin-domain-deleted glycoprotein pseudotyped VSV: "O=C(CNC(=O)C12CC3CC(C1)CC(c1ccccc1)(C3)C2)NC1CCN(Cc2ccccc2)CC1" . Observed EC50: 250
